Measured values drawn from the kinase profiling compilation of Christmann-Franck et al. (2016) for this set.

Molecular target: UniProt:P05771
Sequence (P05771 whole entry, looked up): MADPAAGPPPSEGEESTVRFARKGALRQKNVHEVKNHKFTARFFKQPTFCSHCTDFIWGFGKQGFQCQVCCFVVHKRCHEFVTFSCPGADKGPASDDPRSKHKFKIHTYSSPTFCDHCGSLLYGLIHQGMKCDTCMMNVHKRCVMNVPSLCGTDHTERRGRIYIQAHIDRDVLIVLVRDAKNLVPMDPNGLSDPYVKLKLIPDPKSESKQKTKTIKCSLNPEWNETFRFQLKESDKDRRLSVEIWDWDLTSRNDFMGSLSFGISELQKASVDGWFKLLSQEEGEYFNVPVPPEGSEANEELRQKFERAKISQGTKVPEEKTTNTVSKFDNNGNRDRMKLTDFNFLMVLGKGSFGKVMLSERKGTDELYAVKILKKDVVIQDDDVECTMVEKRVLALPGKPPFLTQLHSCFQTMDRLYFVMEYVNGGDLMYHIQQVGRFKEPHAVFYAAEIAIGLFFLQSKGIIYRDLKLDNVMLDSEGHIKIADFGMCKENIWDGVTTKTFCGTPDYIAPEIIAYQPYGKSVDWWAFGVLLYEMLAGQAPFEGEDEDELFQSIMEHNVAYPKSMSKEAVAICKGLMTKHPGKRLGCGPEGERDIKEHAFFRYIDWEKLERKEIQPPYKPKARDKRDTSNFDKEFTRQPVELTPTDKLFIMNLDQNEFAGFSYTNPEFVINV
Assay: radiometric filter-binding kinase assay, Kinase HotSpot
Details: compound 0.5 µM; ATP 10 µM
Measured residual activity accompanies every entry in the list below.
measurement type: residual activity (%)

compound | measurement type | display unit | data value
O=C1Nc2ccccc2/C1=C1/Nc2ccccc2/C1=N\OCCC(O)CO (stereo not drawn) | residual activity | % | 93.6
Nc1nnc2[nH]c3ccccc3nc1-2 | residual activity | % | 103
CCn1cnc2c(Nc3cccc(Cl)c3)nc(N[C@@H]3CCCC[C@@H]3N)nc21 | residual activity | % | 106
O=C(Nc1cccc(Nc2cc(Nc3cccc(C(F)(F)F)c3)ncn2)c1)C1CC1 | residual activity | % | 93.2
CCN(CC)CCCCN1c2ccccc2Oc2ccc(Cl)cc21 | residual activity | % | 101
O=C(CCCc1ccc(-c2ccccc2F)cc1)Nc1ccc(O)cc1 | residual activity | % | 93.4
CN(C)C[C@H]1CCn2c(c(C3=C(c4cn(C)c5ccccc45)C(=O)NC3=O)c3ccccc32)C1 | residual activity | % | 3.71
O=C1Nc2ccccc2/C1=C1\Nc2ccccc2\C1=N/O | residual activity | % | 94.7
Nc1nccc(-c2c(-c3ccc(F)cc3)ncn2C2CCNCC2)n1 | residual activity | % | 91
CN([C@@H](Cc1ccc(OS(=O)(=O)c2cccc3cnccc23)cc1)C(=O)N1CCN(c2ccccc2)CC1)S(=O)(=O)c1cccc2cnccc12 | residual activity | % | 95.9
Cc1nc2cc3nc(-c4cccs4)cnc3cc2n1C | residual activity | % | 107
Cn1nc2c3c(cccc31)C(=O)c1ccccc1-2 | residual activity | % | 94.7
Cn1cnc2cc3c(Nc4cccc(Br)c4)ncnc3cc21 | residual activity | % | 100
COc1ccc(OC)c2c(=S)c3ccccc3[nH]c12 | residual activity | % | 101
O=C(O)/C=C/c1cc(Br)c(Br)c(Br)c1Br | residual activity | % | 95.5
O=C1Cc2c([nH]c3ccc(Br)cc23)-c2ccccc2N1 | residual activity | % | 93.1
CC(=O)O/N=C1\C(=C2\C(=O)Nc3cc(Br)ccc32)Nc2ccccc21 | residual activity | % | 105
Cn1sc(=O)n(Cc2ccccc2)c1=O | residual activity | % | 110
CC(C)c1nn(-c2c(Cl)cccc2Cl)c2nc(Cc3ccc(OCCO)cc3)nc(O)c12 | residual activity | % | 101
Oc1ccc(Nc2nc(-c3ccc(Cl)cc3)cs2)cc1 | residual activity | % | 101
COc1cc2ncc(-c3ccccc3)nc2cc1OC | residual activity | % | 105
CC(C)[C@H](CO)Nc1nc(Nc2cc(N)cc(Cl)c2)c2ncn(C(C)C)c2n1 | residual activity | % | 98.8
O=C1NC(=O)C(c2c[nH]c3ccccc23)=C1c1c[nH]c2ccccc12 | residual activity | % | 26.1

---

Target: TYK2 JH1 catalytic (human) (UniProt P29597)
Sequence (P29597 whole entry, looked up): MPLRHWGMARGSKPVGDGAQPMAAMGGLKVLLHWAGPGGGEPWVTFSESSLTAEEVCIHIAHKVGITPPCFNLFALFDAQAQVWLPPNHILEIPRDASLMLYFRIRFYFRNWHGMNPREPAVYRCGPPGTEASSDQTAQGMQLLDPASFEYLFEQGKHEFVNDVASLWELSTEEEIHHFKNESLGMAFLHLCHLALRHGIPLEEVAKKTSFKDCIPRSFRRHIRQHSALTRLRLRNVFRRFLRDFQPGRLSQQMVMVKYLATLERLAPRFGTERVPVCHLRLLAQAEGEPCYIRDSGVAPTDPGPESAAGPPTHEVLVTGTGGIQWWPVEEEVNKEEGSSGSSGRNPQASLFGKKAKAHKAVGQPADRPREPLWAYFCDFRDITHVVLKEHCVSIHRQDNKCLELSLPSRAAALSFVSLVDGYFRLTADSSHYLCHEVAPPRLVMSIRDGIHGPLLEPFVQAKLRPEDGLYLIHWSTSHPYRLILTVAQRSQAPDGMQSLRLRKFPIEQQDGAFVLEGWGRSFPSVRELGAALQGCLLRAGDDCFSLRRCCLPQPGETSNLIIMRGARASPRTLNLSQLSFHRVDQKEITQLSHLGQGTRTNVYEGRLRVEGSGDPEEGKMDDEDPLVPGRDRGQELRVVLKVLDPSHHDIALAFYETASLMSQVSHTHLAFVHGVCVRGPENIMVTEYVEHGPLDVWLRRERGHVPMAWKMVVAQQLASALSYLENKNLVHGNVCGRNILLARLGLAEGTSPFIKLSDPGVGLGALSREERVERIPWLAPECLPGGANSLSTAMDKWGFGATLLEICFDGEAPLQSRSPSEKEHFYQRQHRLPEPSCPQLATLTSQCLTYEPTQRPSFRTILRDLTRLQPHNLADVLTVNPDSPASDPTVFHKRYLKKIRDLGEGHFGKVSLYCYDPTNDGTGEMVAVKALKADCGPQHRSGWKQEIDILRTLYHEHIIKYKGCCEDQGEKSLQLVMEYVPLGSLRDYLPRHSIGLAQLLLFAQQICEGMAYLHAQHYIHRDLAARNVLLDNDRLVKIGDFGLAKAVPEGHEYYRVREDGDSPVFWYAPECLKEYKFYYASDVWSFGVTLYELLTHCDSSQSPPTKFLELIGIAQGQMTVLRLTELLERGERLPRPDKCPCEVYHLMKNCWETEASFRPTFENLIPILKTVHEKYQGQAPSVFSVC
Assay: radiometric filter-binding kinase assay, Kinase HotSpot
Settings: compound 0.5 µM; ATP 10 µM
measurement type: residual activity (%)

compound | assay target | measurement type | data value
O=C1NC(=O)C(c2c[nH]c3ccccc23)=C1c1c[nH]c2ccccc12 | TYK2 JH1 catalytic (human) (UniProt P29597) | residual activity | 109
O=C(Nc1cccc(Nc2cc(Nc3cccc(C(F)(F)F)c3)ncn2)c1)C1CC1 | TYK2 JH1 catalytic (human) (UniProt P29597) | residual activity | 102
CC(C)c1nn(-c2c(Cl)cccc2Cl)c2nc(Cc3ccc(OCCO)cc3)nc(O)c12 | TYK2 JH1 catalytic (human) (UniProt P29597) | residual activity | 111
COc1cc2ncc(-c3ccccc3)nc2cc1OC | TYK2 JH1 catalytic (human) (UniProt P29597) | residual activity | 93.9
O=C(CCCc1ccc(-c2ccccc2F)cc1)Nc1ccc(O)cc1 | TYK2 JH1 catalytic (human) (UniProt P29597) | residual activity | 96.5
CN([C@@H](Cc1ccc(OS(=O)(=O)c2cccc3cnccc23)cc1)C(=O)N1CCN(c2ccccc2)CC1)S(=O)(=O)c1cccc2cnccc12 | TYK2 JH1 catalytic (human) (UniProt P29597) | residual activity | 110
O=C1Nc2ccccc2/C1=C1/Nc2ccccc2/C1=N\OCCC(O)CO (stereo not given) | TYK2 JH1 catalytic (human) (UniProt P29597) | residual activity | 9.42
CCN(CC)CCCCN1c2ccccc2Oc2ccc(Cl)cc21 | TYK2 JH1 catalytic (human) (UniProt P29597) | residual activity | 96.7
O=C1Cc2c([nH]c3ccc(Br)cc23)-c2ccccc2N1 | TYK2 JH1 catalytic (human) (UniProt P29597) | residual activity | 81.7
CCn1cnc2c(Nc3cccc(Cl)c3)nc(N[C@@H]3CCCC[C@@H]3N)nc21 | TYK2 JH1 catalytic (human) (UniProt P29597) | residual activity | 110
